Reference source for all entries: a melting point compilation (Tetko et al.; mined from patent text by program, amines drawn as free bases though some values may be those of a salt)

Measure Name: melting point

// solved cases for melting point follow
Answer with the recorded melting point of "COC(=O)c1c(C(=O)O)nc2cc(Cl)ccc2c1O" only.
215 °C

Answer with the recorded melting point of "CCOC(=O)Cn1c(=O)c2cc(OC)ccc2n(Cc2ccc(Cl)cc2Cl)c1=O" only.
167 to 168 °C

Answer with the recorded melting point of O=C(O)C1=Cc2cc(Oc3ccc(C(F)(F)F)cc3)cc(Cl)c2OC1C(F)(F)F (stereo not given) only.
224 to 226 °C

Answer with the recorded melting point of "Cc1oc(-c2ccccc2)nc1COc1ccc(CCCBr)cc1" only.
80 to 81 °C

Answer with the recorded melting point of O=C1C(CCO)Oc2ccccc2N1Cc1cc(Cl)cc(Cl)c1 (stereo not given) only.
104 to 106 °C

***
Answer with the recorded melting point of "CSc1nc(C)ccc1NC(=O)CCCCCSc1nc2ccccc2s1" only.
122 to 123 °C

Answer with the recorded melting point of C[C@H](CO)NN1c2[nH]c(=O)cnc2C=NC1SCc1cccc(C(F)(F)F)c1F (stereo not given in full) only.
217 to 219 °C

Answer with the recorded melting point of "Cc1nc(NCC(F)(F)F)c2nc(-c3ccccc3)cc-2[nH]1" only.
> 310 °C

Answer with the recorded melting point of CC1Nc2ccc(S(=O)(=O)N(C)C)cc2S(=O)(=O)N1 (stereo not given) only.
210 to 212 °C

Answer with the recorded melting point of "Cc1cccc(-c2n[nH]cc2-c2ccc(F)c(-c3ccc(S(N)(=O)=O)c(F)c3)c2)n1" only.
119 to 121 °C

* * *

// reported melting point per item

// solved cases for melting point follow
Answer with the recorded melting point of "CCOC(=O)C(=Cc1cccc([N+](=O)[O-])c1)C(=O)C(Cl)(Cl)Cl" only.
106 to 107 °C

Answer with the recorded melting point of "O=C1CC2(CCCC2)CC(=O)N1CCCCN(c1ccncc1)n1c2ccccc2c2ccccc21" only.
90 to 92 °C

Answer with the recorded melting point of "O=C(O)Cc1ccc(-c2cn3ccsc3n2)cc1" only.
248 to 249 °C

Answer with the recorded melting point of "CCCCCCCCCCCCNc1ncnc2nc[nH]c12" only.
159 to 160 °C

Answer with the recorded melting point of "CCOC(=O)COC(=O)c1cc2c(cn1)[nH]c1ccccc12" only.
165 to 168 °C

The record that follows has no melting point shown yet.
Answer with the recorded melting point of "CC(=O)c1cc(Nc2nc(N)nc(N)n2)cc(C(C)=O)c1" only.
271 to 272 °C

* * *

Measure Name: melting point

// solved cases for melting point follow
Answer with the recorded melting point of "CCOc1cc(OCCCc2cn(-c3ccc(C(F)(F)F)cn3)nc2-c2ccccc2)ccc1CCC(=O)O" only.
135 to 136 °C

Answer with the recorded melting point of COc1cc(C)cc2c1C(N1CC[N+]([O-])(C(=O)Cc3ccncc3)CC1)c1ncc(Br)cc1CC2 (single isomer, unassigned; (-)) only.
111 to 116 °C

Answer with the recorded melting point of "CCOC(=O)C(=O)Nc1ccc(C=Cc2ccc3ccccc3n2)cc1" only.
160 to 162 °C

***
Answer with the recorded melting point of "Cn1cc(-c2cc(-c3ccc4[nH]ncc4c3)ccn2)n(-c2ccc(C(C)(C)C#N)cc2)c1=O" only.
165 °C

Answer with the recorded melting point of "OCCn1cnc2c(NCCN3CCC(Nc4nc5ccccc5n4Cc4ccc(F)cc4)CC3)ncnc21" only.
169 °C

Answer with the recorded melting point of "CCCCSc1ccc(/C=C\C(C)=O)cc1[N+](=O)[O-]" only.
100 °C

Answer with the recorded melting point of O=C1CCC(N2Cc3c(OCc4nc(CN5CCOCC5)no4)cccc3C2=O)C(=O)N1 (stereo not drawn) only.
150 to 152 °C

Answer with the recorded melting point of C#CC1(O)C(CO)OC(n2ccc(=O)[nH]c2=O)C1O (stereo not drawn) only.
226 to 228 °C
